- PROCEDURE_SUMMARY: self-splicing fitness, log relative to wild type (ln ratio); higher = more splicing; Tetrahymena group I intron in knt gene, E. coli kanamycin selection, DiMSum; sequences stand for … in CUCUCU…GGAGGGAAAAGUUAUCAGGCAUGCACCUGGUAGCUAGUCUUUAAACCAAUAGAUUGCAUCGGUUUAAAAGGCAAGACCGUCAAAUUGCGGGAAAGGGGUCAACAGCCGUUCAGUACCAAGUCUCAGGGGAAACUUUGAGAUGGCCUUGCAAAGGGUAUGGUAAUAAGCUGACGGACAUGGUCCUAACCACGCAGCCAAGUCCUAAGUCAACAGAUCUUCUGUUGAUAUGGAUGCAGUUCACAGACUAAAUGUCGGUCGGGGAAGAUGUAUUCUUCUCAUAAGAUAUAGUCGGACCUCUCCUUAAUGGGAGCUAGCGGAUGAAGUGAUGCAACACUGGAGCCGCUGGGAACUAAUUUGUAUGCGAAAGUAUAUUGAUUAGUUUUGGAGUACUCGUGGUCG;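 further: selection with 25 µg/mL kanamycin versus none on LB agar overnight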
- CONDITION_SUMMARY: 37 °C
For each entry below, report its self-splicing fitness (ln) value.
Answers are plain numbers.

Known results for sequences:
SEQUENCE_DATA: AAGAAGCAAUAUUACGAAAU
self-splicing fitness (ln): -2.03
--
SEQUENCE_DATA: AACCAGCAAUAUUACGGGAA
self-splicing fitness (ln): -1.01
--
SEQUENCE_DATA: CGGAAGCAAUAUUACGAAGG
self-splicing fitness (ln): -0.983

Now look at this one.
QUERY: Would you mind telling me what self-splicing fitness (ln) value was observed for GCAUAGCAAUAUUACGGGCA ?
RESULT: -0.974

###

- PROCEDURE_SUMMARY: self-splicing fitness, log relative to wild type (ln ratio); higher = more splicing; Tetrahymena group I intron in knt gene, E. coli kanamycin selection, DiMSum; sequences stand for … in CUCUCU…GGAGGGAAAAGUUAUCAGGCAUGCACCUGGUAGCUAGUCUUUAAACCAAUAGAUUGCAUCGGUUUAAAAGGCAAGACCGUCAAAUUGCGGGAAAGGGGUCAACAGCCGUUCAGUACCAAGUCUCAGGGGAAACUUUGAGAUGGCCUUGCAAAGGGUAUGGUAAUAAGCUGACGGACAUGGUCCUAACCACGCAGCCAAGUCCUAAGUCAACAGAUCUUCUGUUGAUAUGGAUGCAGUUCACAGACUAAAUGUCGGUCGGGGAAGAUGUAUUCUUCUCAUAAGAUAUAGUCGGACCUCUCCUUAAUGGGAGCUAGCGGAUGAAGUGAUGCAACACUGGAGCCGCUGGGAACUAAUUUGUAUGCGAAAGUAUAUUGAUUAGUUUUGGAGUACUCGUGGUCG
- CONDITION_SUMMARY: 30 °C
READOUT: self-splicing fitness (ln)

Known results for sequences:
SEQUENCE_DATA: GGUCAGCAAUAUUACGUACU
self-splicing fitness (ln): -1.84
//
SEQUENCE_DATA: GCCGAGCAAUAUUACGACGU
self-splicing fitness (ln): -0.371
//
SEQUENCE_DATA: GACUAGCAAUAUUACGACGC
self-splicing fitness (ln): 0.125
//
SEQUENCE_DATA: UAGAAGCAAUAUUACGGCCA
self-splicing fitness (ln): -0.205
//
SEQUENCE_DATA: UGUUAGCAAUAUUACGUAAA
self-splicing fitness (ln): -0.887
//
SEQUENCE_DATA: CGUUAGCAAUAUUACGUAGC
self-splicing fitness (ln): -3.37
//
SEQUENCE_DATA: UCGCAGCAAUAUUACGCCCG
self-splicing fitness (ln): -1.51
//
SEQUENCE_DATA: CGGAAGCAAUAUUACGAAGG
self-splicing fitness (ln): -1.17

QUERY: Would you mind telling me what self-splicing fitness (ln) value was observed for AUUUAGCAAUAUUACGUUCA ?
RESULT: -0.355

###

For each entry below, report its self-splicing fitness (ln) value.
- PROCEDURE_SUMMARY: self-splicing fitness, log relative to wild type (ln ratio); higher = more splicing; Tetrahymena group I intron in knt gene, E. coli kanamycin selection, DiMSum; sequences stand for … in CUCUCU…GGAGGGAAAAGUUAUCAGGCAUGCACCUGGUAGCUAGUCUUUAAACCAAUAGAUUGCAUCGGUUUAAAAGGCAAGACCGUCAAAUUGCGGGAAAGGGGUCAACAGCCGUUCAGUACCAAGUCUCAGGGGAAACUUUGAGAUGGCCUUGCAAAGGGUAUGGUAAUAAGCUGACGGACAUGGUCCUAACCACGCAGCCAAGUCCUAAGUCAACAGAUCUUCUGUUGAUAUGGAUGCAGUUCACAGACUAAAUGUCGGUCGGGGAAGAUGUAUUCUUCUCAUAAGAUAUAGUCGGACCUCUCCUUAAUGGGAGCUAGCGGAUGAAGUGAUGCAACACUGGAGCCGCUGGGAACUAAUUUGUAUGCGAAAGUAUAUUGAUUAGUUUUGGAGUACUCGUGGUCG
- CONDITION_SUMMARY: 37 °C
Give bare numbers.

Respectfully, I request self-splicing fitness (ln) for each entry included below.
1. GGCCAGCAAUAUUACGAACA
2. GAUAAGCAAUAUUACGACUA
3. AACUAGCAAUAUUACGUUUG

RESULT:
-2.03
-0.149
-1.72

###

- PROCEDURE_SUMMARY: self-splicing fitness, log relative to wild type (ln ratio); higher = more splicing; Tetrahymena group I intron in knt gene, E. coli kanamycin selection, DiMSum; sequences stand for … in CUCUCU…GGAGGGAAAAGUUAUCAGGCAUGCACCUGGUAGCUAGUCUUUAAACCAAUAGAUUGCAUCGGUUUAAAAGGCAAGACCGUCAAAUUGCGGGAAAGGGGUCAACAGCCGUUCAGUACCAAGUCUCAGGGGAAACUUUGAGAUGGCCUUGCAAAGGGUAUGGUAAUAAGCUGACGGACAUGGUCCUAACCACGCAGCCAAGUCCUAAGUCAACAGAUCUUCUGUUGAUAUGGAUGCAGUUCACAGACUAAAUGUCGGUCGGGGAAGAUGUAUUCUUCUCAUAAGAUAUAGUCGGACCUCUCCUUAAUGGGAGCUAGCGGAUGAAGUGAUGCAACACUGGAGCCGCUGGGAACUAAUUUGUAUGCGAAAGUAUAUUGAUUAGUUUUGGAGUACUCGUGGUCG
- CONDITION_SUMMARY: 30 °C
For each entry below, report its self-splicing fitness (ln) value.

Known results for sequences:
SEQUENCE_DATA: UGGCAGCAAUAUUACGCCCG
self-splicing fitness (ln): -0.568
//
SEQUENCE_DATA: CUGGAGCAAUAUUACGUUUG
self-splicing fitness (ln): -2.66
//
SEQUENCE_DATA: UUAAAGCAAUAUUACGAUUA
self-splicing fitness (ln): 0.6
//
SEQUENCE_DATA: GGACAGCAAUAUUACGAACC
self-splicing fitness (ln): -1.23
//
SEQUENCE_DATA: UGUGAGCAAUAUUACGAAGG
self-splicing fitness (ln): -3.98
//
SEQUENCE_DATA: AUUCAGCAAUAUUACGACCG
self-splicing fitness (ln): 0.174
//
SEQUENCE_DATA: UCAUAGCAAUAUUACGCGGA
self-splicing fitness (ln): -2.71
//
SEQUENCE_DATA: ACCUAGCAAUAUUACGUGAA
self-splicing fitness (ln): -2.1
//
SEQUENCE_DATA: CUCCAGCAAUAUUACGCAUC
self-splicing fitness (ln): -4.12
//
SEQUENCE_DATA: UGACAGCAAUAUUACGUGUA
self-splicing fitness (ln): -1.58

Respectfully, I request self-splicing fitness (ln) for each entry included below.
1. UGUUAGCAAUAUUACGCAUA
2. GCCCAGCAAUAUUACGGGAG
3. AAAGAGCAAUAUUACGGUCU
4. GCUGAGCAAUAUUACGCCAG
5. AAUCAGCAAUAUUACGCUGG

RESULT:
-1.72
-0.834
-2.5
-3.69
-2.63

Respectfully, I request self-splicing fitness (ln) for each entry included below.
1. CCCUAGCAAUAUUACGAGUG
2. UGGUAGCAAUAUUACGACGA
3. GGGAAGCAAUAUUACGGUUU
4. ACCAAGCAAUAUUACGAGGC
5. CCAUAGCAAUAUUACGCUGG
6. CUAUAGCAAUAUUACGGAAU
7. CCUCAGCAAUAUUACGUGCA

RESULT:
-3.51
-0.462
-1.89
-3.14
-3.54
-3.5
-4.09

Respectfully, I request self-splicing fitness (ln) for each entry included below.
1. AAUGAGCAAUAUUACGUUGG
2. AAGGAGCAAUAUUACGUAGG
3. GUGCAGCAAUAUUACGAUUC
4. GUCAAGCAAUAUUACGCUAA
5. CUAAAGCAAUAUUACGUGGC

RESULT:
1. -3.18
2. -3.12
3. 0.476
4. -1.48
5. -2.9

Respectfully, I request self-splicing fitness (ln) for each entry included below.
1. CUGAAGCAAUAUUACGGUGG
2. GCCCAGCAAUAUUACGUUGG
3. UACAAGCAAUAUUACGUCCA
4. UGACAGCAAUAUUACGAACA

RESULT:
1. -1.02
2. -3.22
3. -1.06
4. -0.232

Respectfully, I request self-splicing fitness (ln) for each entry included below.
1. UAGUAGCAAUAUUACGGCAU
2. GGCUAGCAAUAUUACGGUAA
3. CUGAAGCAAUAUUACGUGAA
4. CCCGAGCAAUAUUACGGGUA
5. ACUGAGCAAUAUUACGAGCG
6. ACAGAGCAAUAUUACGACUA

RESULT:
[-2.2, -0.655, -2.91, -3.44, -2.44, -1.17]

Respectfully, I request self-splicing fitness (ln) for each entry included below.
1. GAGGAGCAAUAUUACGUCUG
2. AGUAAGCAAUAUUACGAAAC
3. GCCUAGCAAUAUUACGGGCA

RESULT:
1: -1.73; 2: -3.94; 3: -1.3

Respectfully, I request self-splicing fitness (ln) for each entry included below.
1. AGAGAGCAAUAUUACGGGAG
2. UAUGAGCAAUAUUACGGGGU
3. UAAUAGCAAUAUUACGAGUC
4. UAACAGCAAUAUUACGCGCA
5. GUCGAGCAAUAUUACGCUCA

RESULT:
[-2.6, -2.98, -2.97, -0.471, -0.929]

Respectfully, I request self-splicing fitness (ln) for each entry included below.
1. AGGAAGCAAUAUUACGGAAA
2. UAUUAGCAAUAUUACGUUGU
3. AGAUAGCAAUAUUACGGGGU
4. CUUAAGCAAUAUUACGCACG
5. UGUCAGCAAUAUUACGGAAC
6. GCCAAGCAAUAUUACGCACA

RESULT:
1. -2.92
2. -3.93
3. -3.5
4. -1.62
5. -3.82
6. -1.07
